Experimental Details: % distribution in octanol versus pH7.4 buffer
Assay type: physicochemical
Measurement Conditions: pH 7.4
Measurement Name: Distribution (%)

# Molecule, Result Unit, Result Comparator, Assay Value
rows = [
    ("CCC12CCC(=O)C=C1c1c(cc(OCC(=O)OCc3cccnc3)c(Cl)c1Cl)C2 (stereo not drawn)", "%", ">", 99.9),
    ("CC12CCC(=O)C=C1c1c(cc(OCC(=O)O)c(Cl)c1Cl)C2 (stereo not drawn)", "%", "=", 62),
    ("CCCC12CCC(=O)C=C1c1c(cc(SCC(=O)O)c(Cl)c1Cl)C2 (stereo not drawn)", "%", "=", 99),
    ("CCC12CCC(=O)C=C1c1c(cc(OCC(=O)O)c(Cl)c1Cl)C2 (stereo in doubt; (-)-5b)", "%", "=", 81),
    ("CC(C)C12CCC(=O)C=C1c1c(cc(OCC(=O)O)c(Cl)c1Cl)C2 (stereo not drawn)", "%", "=", 89),
    ("CCOC(=O)COc1cc2c(c(Cl)c1Cl)C1=CC(=O)CCC1(CC)C2 (single isomer, unassigned; (+))", "%", ">", 99.9),
    ("CCC12CCC(=O)C=C1c1c(cc(OCc3nn[nH]n3)c(Cl)c1Cl)C2 (stereo not drawn)", "%", "=", 95),
    ("CCCC12CCC(=O)C=C1c1c(cc(OCC(=O)OC(CC)(CC)C(=O)O)c(Cl)c1Cl)C2 (single isomer, unassigned; (+))", "%", ">", 99.9),
]

---

Experimental Details: Dissociation constant (pKa) (determined in 30% EtOH)
Format: physicochemical
Please use Yes whenever pKa is not below 4, and No whenever it is.

# Molecule, Answer Label
rows = [
    ("CCC12CCC(=O)C=C1c1c(cc(OCC(=O)OC(C)(C)C(=O)O)c(Cl)c1Cl)C2 (stereo in doubt; 16b-9)", "No"),
    ("CCCC12CCC(=O)C(C)=C1c1c(cc(OCC(=O)O)c(Cl)c1Cl)C2 (stereo not given)", "No"),
    ("CC(C)C12CCC(=O)C=C1c1c(cc(OCC(=O)O)c(Cl)c1Cl)C2 (stereo not given)", "No"),
    ("CCCCC12CCC(=O)C=C1c1c(cc(OCC(=O)O)c(Cl)c1Cl)C2 (stereo not given)", "No"),
    ("CCCC12CCC(=O)C=C1c1c(cc(OCC(=O)O)c(C)c1C)C2 (stereo not given)", "Yes"),
    ("CCC12CCC(=O)C=C1c1c(cc(OCc3nn[nH]n3)c(Cl)c1Cl)C2 (stereo not given)", "No"),
    ("CCC12CCC(=O)C=C1c1c(cc(OCC(=O)OCCN3CCOCC3)c(Cl)c1Cl)C2 (stereo not given)", "Yes"),
    ("CCC12CCC(=O)C=C1c1c(cc(OCC(=O)OCC(=O)O)c(Cl)c1Cl)C2 (stereo in doubt; 16b-8)", "No"),
    ("C=CC12CCC(=O)C=C1c1c(cc(OCC(=O)O)c(Cl)c1Cl)C2 (stereo not given)", "No"),
]

---

Some molecules, each annotated with its measured pIC50.
Organism: Felis catus
Experimental Details: In vitro concentration required for 50% inhibition of swelling of cat cerebrocortical slices
Type: functional
Measurement Conditions: read-out: I50
pIC50: −log10 of the molar value.

# Molecule, pIC50
rows = [
    ("CCC12CCC(=O)C=C1c1c(cc(OCC(=O)O)c(Cl)c1Cl)C2 (stereo in doubt; (-)-5b)", 4.52),
    ("CCOC(=O)COc1cc2c(c(Cl)c1Cl)C1=CC(=O)CCC1(CC)C2 (single isomer, unassigned; (+))", 10.00),
    ("CCC12CCC(=O)C=C1c1c(cc(OCC(=O)O)c(Cl)c1Cl)C2 (stereo in doubt; 5b)", 7.52),
    ("CCCC12CCC(=O)C=C1c1c(cc(OCC(=O)O)c(Cl)c1Cl)C2 (single isomer, unassigned; (-))", 5.00),
]

---

Species on record: Felis catus
Experimental Details: In vitro concentration required for 50% inhibition of swelling of cat cerebrocortical slices
Type: functional
Measurement Conditions: read-out: I50
Measurement Name: log10 of IC50 (log10 of the value in nM)

# Compound, log10 of IC50
records = [
    ("CCCC12CCC(=O)C=C1c1c(cc(OCC(=O)O)c(Cl)c1Cl)C2 (stereo in doubt; 5c)", -1.40),
    ("CCC12CCC(=O)C=C1c1c(cc(OCC(=O)OCC(=O)O)c(Cl)c1Cl)C2 (stereo in doubt; (+)-16b-8)", 0.48),
    ("CCC12CCC(=O)C=C1c1c(cc(OCC(=O)O)c(Cl)c1Cl)C2 (single isomer, unassigned; (+))", 1.00),
    ("CCC12CCC(=O)C=C1c1c(cc(OCC(=O)OC(C)(C)C(=O)O)c(Cl)c1Cl)C2 (stereo in doubt; (+)-16b-9)", -0.30),
    ("CCOC(=O)COc1cc2c(c(Cl)c1Cl)C1=CC(=O)CCC1(CC)C2 (stereo in doubt; 16b-1)", -0.70),
    ("CCCC12CCC(=O)C=C1c1c(cc(OCC(=O)O)c(Cl)c1Cl)C2 (single isomer, unassigned; (+))", -1.70),
]

---

Experimental Details: % distribution in octanol versus pH7.4 buffer
Assay type: physicochemical
Measurement Conditions: pH 7.4
Respond with YES for Distribution values of 90% and above, NO for values below.

# Compound, Answer Label
measured = [
    ("CCCC12CCC(=O)C=C1c1c(cc(OCC(=O)NCCN(C)C)c(Cl)c1Cl)C2 (centres undefined)", "YES"),
    ("CCCC12CCC(=O)C=C1c1c(cc(O)c(Cl)c1Cl)C2 (single isomer, unassigned; (+))", "NO"),
    ("CCCC12CCC(=O)C=C1c1ccc(OCC(=O)O)cc1C2 (centres undefined)", "NO"),
    ("CCOC(=O)COc1cc2c(c(Cl)c1Cl)C1=CC(=O)CCC1(CC)C2 (stereo in doubt; 16b-1)", "YES"),
    ("CCCC12CCC(=O)C=C1c1c(cc(OCC(=O)O)c(Cl)c1Cl)C2 (stereo in doubt; 5c)", "YES"),
    ("CCC12C=CC(=O)C=C1c1c(cc(OCC(=O)O)c(Cl)c1Cl)C2 (centres undefined)", "NO"),
    ("CCCC12CCC(C(C)=O)=C1c1c(cc(OCC(=O)O)c(Cl)c1Cl)C2 (centres undefined)", "YES"),
    ("CCC12CCC(=O)C=C1c1c(cc(OCC(=O)OCCCO)c(Cl)c1Cl)C2 (centres undefined)", "YES"),
]
